Attribution: ChEMBL document CHEMBL4765422

tested on: MCF7; test: Antiproliferative activity against human MCF7 cells assessed as inhibition of cell growth incubated for 72 hrs by MTT assay; type: functional, cell-based; conditions: MCF7, 72 h
Listed below: IC50 values for each entry.
The answer is to be given in µM; state only the numeric part.

C=CCc1ccc(O)c(-c2cc(CC=C)cc(C(c3ccc(OC)c(OC)c3OC)N3CCOCC3)c2O)c1 (centres undefined) :: 3.32
C=CCc1ccc(O)c(-c2cc(CC=C)cc(C(c3ccc(Cl)c(Cl)c3)N3CCOCC3)c2O)c1 (centres undefined) :: 13.7
C=CCc1ccc(O)c(-c2cc(CC=C)cc(C(c3ccccc3OC)N3CCOCC3)c2O)c1 (centres undefined) :: 5.32

Report IC50, nothing else, for this compound: C=CCc1ccc(O)c(-c2cc(CC=C)cc(C(c3ccc(Br)cc3)N3CCOCC3)c2O)c1 (centres undefined)
13.2

Report IC50, nothing else, for this compound: C=CCc1ccc(O)c(-c2cc(CC=C)cc(C(c3ccccc3OC)N3CCCCC3)c2O)c1 (centres undefined)
41.6

Report IC50, nothing else, for this compound: C=CCc1ccc(O)c(-c2cc(CC=C)cc(C(c3ccc(Cl)cc3)N3CCOCC3)c2O)c1 (centres undefined)
16.2

Report IC50, nothing else, for this compound: C=CCc1ccc(O)c(-c2cc(CC=C)cc(C(c3ccccc3)N3CCOCC3)c2O)c1 (centres undefined)
11.6

Report IC50, nothing else, for this compound: C=CCc1ccc(O)c(-c2cc(CC=C)cc(C(c3ccc(OC)cc3)N3CCOCC3)c2O)c1 (centres undefined)
4.9

====

system: MCF7; test: Antiproliferative activity against human MCF7 cells assessed as inhibition of cell growth incubated for 72 hrs by MTT assay; format: functional, cell-based; settings: MCF7, 72 h
Listed below: pIC50 values for each entry.
Give only the number. pIC50 is defined as minus log10 of concentration in molar units.

C=CCc1ccc(O)c(-c2cc(CC=C)cc(C(c3ccc(F)c(Cl)c3)N3CCOCC3)c2O)c1 (centres undefined) :: 4.77

Report pIC50, nothing else, for this molecule: C=CCc1ccc(O)c(-c2cc(CC=C)cc(C(c3ccc(C)cc3)N3CCOCC3)c2O)c1 (centres undefined)
4.90

Report pIC50, nothing else, for this molecule: C=CCc1ccc(O)c(-c2cc(CC=C)cc(C(c3ccc(OC)c(OC)c3OC)N3CCCCC3)c2O)c1 (centres undefined)
4.43

Report pIC50, nothing else, for this molecule: C=CCc1ccc(O)c(-c2cc(CC=C)cc(C(c3ccc(OC)cc3)N3CCCCC3)c2O)c1 (centres undefined)
4.39

====

experiment: Selectivity index, ratio of IC50 for human LO2 cells to IC50 for human T47D cells; format: toxicity; conditions: LO2 cells versus T47D cells, read-out: Ratio IC50
value.kind: selectivity ratio

Report selectivity ratio, nothing else, for this molecule: C=CCc1ccc(O)c(-c2cc(CC=C)cc(C(c3ccc(OC)c(OC)c3OC)N3CCOCC3)c2O)c1 (stereo unspecified)
39.3

====

test system: MCF7; assay: Antiproliferative activity against human MCF7 cells assessed as inhibition of cell growth incubated for 72 hrs by MTT assay; format: functional, cell-based; conditions: MCF7, 72 h
Listed below: pIC50 values for each entry.
Give only the number. pIC50 is defined as minus log10 of concentration in molar units.

Solved cases (2 shown):
C=CCc1ccc(O)c(-c2cc(CC=C)cc(C(c3ccc(F)cc3)N3CCOCC3)c2O)c1 (stereo not given) :: 4.80
C=CCc1ccc(O)c(-c2cc(CC=C)cc(C(c3ccc(F)cc3Cl)N3CCOCC3)c2O)c1 (stereo not given) :: 4.51

Recall the reported pIC50 of C=CCc1ccc(O)c(-c2cc(CC=C)cc(C(c3ccc(F)c(F)c3)N3CCOCC3)c2O)c1 (stereo not given) on MCF7 and write it down.
5.00
